assay: Toxicity liver stage against HepG2, at 10uM; assay type: cell-based; design: test concentration 10 uM, cell line HepG2-A16-CD81EGFP; details: human, HepG2-A16-CD81EGFP cells; read-out: INHIBITION
measurement.label: cytotoxicity at 10 µM (%)
Answers are plain numbers, in %.

{"compound": "Cc1ccccc1C(=O)N1C[C@@H](O)[C@H](N2CCOCC2)C1", "recorded.result": 9.3}

Below is a list of compounds. For each, state its recorded cytotoxicity at 10 µM.
1. CCc1ncc2c(n1)CN(CC(=O)Nc1cc(C)no1)CC2
2. COC(=O)C1CCN(C(=O)Cn2ccc(-c3ccsc3)n2)CC1
3. COc1ccc(CC(=O)N2CCCCC2Cn2cccn2)cc1OC (configuration not stated)

Resp:
-16.9
-6.58
-12.4

Okay, here is my list. What is cytotoxicity at 10 µM for each of these?
1. Cc1cc(C(=O)NC2CCN(c3ncccc3C#N)CC2)on1
2. Cc1cccc(N2CCN(CCNC(=O)c3ccnn3C)CC2)c1
3. C[C@@H]1CN(C(=O)CCCn2nnc(-c3ccc(F)cc3)n2)C[C@]1(C)O
4. CCOC1CCN(C(=O)NCc2ccc(CN3CCOCC3)cc2)CC1
5. Cn1cc(CNCC2(N3CCCCC3)Cc3ccccc3C2)cn1
6. CCC(=O)N1CCC2(CC1)C(=O)N(Cc1cccnc1)CCN2C
7. O=C1CCCN1CCCC(=O)N1CCCC(Cc2cccnc2)C1 (configuration not stated)
8. O=C(NC[C@]12COC[C@H]1CN(Cc1ccco1)C2)c1ccccc1

Resp:
1. 0.0456
2. 10.4
3. 14.2
4. 7.31
5. -3.07
6. 2.17
7. -4.5
8. -2.53

---

assay: Toxicity liver stage against HepG2, at 10uM; assay type: cell-based; parameters: test concentration 10 uM, cell line HepG2-A16-CD81EGFP; settings: human, HepG2-A16-CD81EGFP cells; read-out: INHIBITION
So I've got a bunch of compounds here, and I need their cytotoxicity at 10 µM values.
Answers are plain numbers, in %.

Here is how some compounds turned out for cytotoxicity at 10 µM.
{"compound": "CCc1n[nH]c(C2CN(C(=O)c3ccnc(C)n3)CCO2)n1 (centres undefined)", "cytotoxicity at 10 µM, %": -7.06}
{"compound": "Cc1nn(Cc2ccc(C(=O)NCCCN3CCCC3=O)o2)c(C)c1Cl", "cytotoxicity at 10 µM, %": -10.2}
{"compound": "Cn1cnc(S(=O)(=O)N2CCCC2c2ccnc3nccn23)c1 (centres undefined)", "cytotoxicity at 10 µM, %": 6.28}
{"compound": "Cc1ncsc1CN1CCN(C)C2(CCC(=O)N(CCO)CC2)C1 (centres undefined)", "cytotoxicity at 10 µM, %": -9.8}

# batch: return cytotoxicity at 10 µM for each of the 5 compounds below
1. CCN(Cc1ccccc1)C(=O)CN1CCCC(Cn2cncn2)C1 (centres undefined)
2. Cc1ccc(N2CCCC(NCc3nnc(-c4ccco4)o3)C2)nn1 (centres undefined)
3. Cc1nc(C)n(CCNC(=O)C(C)n2ccnc2C(C)C)n1 (centres undefined)
4. Cc1nc(CCCN2CCOCC2)n(Cc2ccc(F)cc2)n1
5. CNCc1ccc([C@@H]2CN(C)C[C@H]2C(N)=O)cc1

Resp:
1. 0.421
2. -9.07
3. -6.57
4. 1.69
5. 7.67

---

Exercise: state measured cytotoxicity at 10 µM for each of the compounds provided.
test: Toxicity liver stage against HepG2, at 10uM; assay type: cell-based; set-up: test concentration 10 uM, cell line HepG2-A16-CD81EGFP; details: human, HepG2-A16-CD81EGFP cells; read-out: INHIBITION
Numbers only, in %.

{"compound": "CCN(CC)CC(=O)N1CCCC1Cn1cccn1 (stereo not drawn)", "cytotoxicity at 10 µM / %": -3.08}
{"compound": "Nc1ccc(-c2cnc(C3CCCN3)cn2)cn1 (stereo not drawn)", "cytotoxicity at 10 µM / %": 2.19}
{"compound": "CC(=O)C1(c2ccccc2)CCN(C(=O)c2ccn3nnnc3c2)CC1", "cytotoxicity at 10 µM / %": -4.97}
{"compound": "Cc1nc(CCC(N)=O)cc(C2CCCN2S(C)(=O)=O)n1 (stereo not drawn)", "cytotoxicity at 10 µM / %": -5.32}
{"compound": "COc1cc(CN(C)C(=O)NCCNC(=O)C2CC2)ccc1SC", "cytotoxicity at 10 µM / %": -3.73}

Please give cytotoxicity at 10 µM, item by item, for the list that follows.
1. Cc1cccc(C)c1NC(=O)CNC(C)Cc1ccsc1 (stereo not drawn)
2. Clc1cccc(CNC2CCN(CCc3ccncc3)CC2)c1

Resp:
1. -6.12
2. -5.62

Req: What value of cytotoxicity at 10 µM has been reported for the following compound? CC(C)c1nn(C)c(N(C)C)c1CNC1CCC(O)CC1 (stereo not drawn)
Resp: 1.63

---

test: Toxicity liver stage against HepG2, at 10uM; format: cell-based; design: test concentration 10 uM, cell line HepG2-A16-CD81EGFP; details: human, HepG2-A16-CD81EGFP cells; read-out: INHIBITION
measurement.label: cytotoxicity at 10 µM (%)
Answers are plain numbers, in %.

{"compound": "COc1c(CNCc2cccc(CS(C)(=O)=O)c2)c(C)nn1C", "cytotoxicity at 10 µM [%]": -5.6}
{"compound": "Cc1nnc(NCC2(c3ccccc3)CCOCC2)c(C#N)c1C", "cytotoxicity at 10 µM [%]": 7.35}
{"compound": "CN(C)Cc1cn2c(n1)CN(CC1CCCC1)CC2", "cytotoxicity at 10 µM [%]": -149}
{"compound": "CN1CCN(C(=O)c2cc3sccc3n2Cc2ccccc2F)CC1", "cytotoxicity at 10 µM [%]": 1.94}
{"compound": "CN1CCN(Cc2cccnc2)C(=O)C12CCN(S(C)(=O)=O)CC2", "cytotoxicity at 10 µM [%]": 0.611}

Give one value of cytotoxicity at 10 µM per listed compound.
1. c1csc(-c2nc(CN3CCCC3Cn3cccn3)co2)c1 (stereo not drawn)
2. CCNC(=O)CNC(=O)c1nc(C2CC2)n(-c2ccccc2Cl)n1
3. CCn1nc(CNC(=O)C2CCCN(C(=O)COC)C2)c2ccccc21 (stereo not drawn)
4. CCC(=O)Nc1nnc2n(Cc3cccc(OC)c3)[nH]c(C)c1-2
5. COCc1ccccc1C(=O)N1CCCC(n2nc(C)cc2C)C1 (stereo not drawn)
6. CN1CCC(O)(CNCc2ccc(F)c(C(F)(F)F)c2)CC1

Resp:
11.1
5.91
-1.29
-9.24
-10.5
3.08

For every item below, please supply its cytotoxicity at 10 µM.
1. Cc1nccc(-c2cccc(NCC(=O)N3CCCC(C)C3)c2)n1 (stereo not drawn)
2. CCCn1nnc(NCc2cc(Br)cc(Br)c2OC)n1
3. Cc1ccc(C(=O)N(C)Cc2csc(Br)c2)c(=O)[nH]1
4. CCC(C)NC(=O)c1ccccc1-n1cnnn1 (stereo not drawn)
5. O=C(Nc1ccccc1)[C@H]1C[C@H]2CN(Cc3cccnc3)C[C@@H]1O2

Resp:
1. -6.27
2. 12.6
3. 15.3
4. 13
5. -80

Lab note: each compound below needs its cytotoxicity at 10 µM filled in.
1. O=C1NCCO[C@H]2CN(C(=O)c3cccs3)CC[C@@H]12
2. O=c1cc(CN2C[C@@H]3CC[C@H]2CN(Cc2ccccc2)C3)[nH]c(=O)[nH]1
3. NC(=O)c1cncc(-n2ccc(-c3cnccn3)n2)c1
4. CCOCc1nc2c(c(NC(CC)c3cccnc3)n1)CCNCC2 (stereo not drawn)
5. COCCO[C@@H]1CCN(C(=O)c2ccc(C)o2)[C@@H]1Cc1cccnc1
6. CCN(CC1CCOC1)C(=O)NCc1ccc(-n2cncn2)nc1 (stereo not drawn)
7. Cc1cccc(CN2CCc3c(nc(N4CCCCC4C)[nH]c3=O)C2)n1 (stereo not drawn)

Resp:
[-107, 8.89, -11.9, -4.28, -12.2, 0.0529, -0.336]

---

test: Toxicity liver stage against HepG2, at 10uM; assay type: cell-based; design: test concentration 10 uM, cell line HepG2-A16-CD81EGFP; details: human, HepG2-A16-CD81EGFP cells; read-out: INHIBITION
measurement.label: cytotoxicity at 10 µM

# annotated cases, reported cytotoxicity at 10 µM shown
{"molecule": "N#Cc1ccsc1N1CCC(Sc2ncc[nH]2)C1=O (stereo not drawn)", "cytotoxicity at 10 µM": "2.72%"}
{"molecule": "O=C(Cc1ccccn1)NCC1OCCc2cn(CC3CC3)nc21 (stereo not drawn)", "cytotoxicity at 10 µM": "7.51%"}

Req: Reported cytotoxicity at 10 µM for c1cncc(C2COC3(CCN(Cc4cccs4)CC3)C2)c1 (stereo not drawn) : what is it?
Resp: -0.697%

---

Can you tell me cytotoxicity at 10 µM for the items I'm about to list?
experiment: Toxicity liver stage against HepG2, at 10uM; type: cell-based; set-up: test concentration 10 uM, cell line HepG2-A16-CD81EGFP; conditions: human, HepG2-A16-CD81EGFP cells; read-out: INHIBITION
Answers are plain numbers, in %.

# count of solved cases: 2
{"compound": "NC(=O)NC1CCN(Cc2ccc(Br)c(F)c2)CC1", "measurement.label": "cytotoxicity at 10 µM", "recorded.result": -1.57}
{"compound": "CC(OCC1CC1)C(=O)Nc1cccc(C(=O)Nc2ccccn2)c1 (stereo not drawn)", "measurement.label": "cytotoxicity at 10 µM", "recorded.result": 2.56}

Here is another compound to look at.
Req: I have this compound here, CC(C)Nc1ncnc2c1CCN(C(=O)NCc1cccc(F)c1)CC2 , and I need its recorded cytotoxicity at 10 µM.
Resp: -110
